# assay text: basal RPMI8226 mitochondrial membrane potential changes, profiling panel, cell-based, JC-1 fluorescence, 24 h, 100 nL compound (AID 1169); note: test concentration not given here
# study conditions: RPMI8226 myeloma, JC-1 mitochondrial potential fluorescence, higher = more signal
assay readout: z-score
Give the value as a plain number.

# example entries with known answers
q: # get_value(readout='z-score', item= C=CCN1Cc2ccccc2[C@H]2OC(c3ccc(OCCCO)cc3)=N[C@@]2(CC=C)C1=O )
a: -0.807

q: # get_value(readout='z-score', item= C=C(C)c1cc2c(c(CCCCCC)n1)[Si](C(C)C)(C(C)C)OC2 )
a: 0.56

q: # get_value(readout='z-score', item= C=C(/C(=C/C[C@H](OC(=O)c1ccncc1)c1ccc(CO)o1)c1cc(C(=O)OC)ccc1OC)C(C)C )
a: -0.324

---
q: # get_value(readout='z-score', item= COCCOC(=O)N1C(=O)[C@@]2(c3cc(C#CC4(O)CCCCCC4)ccc31)[C@H](c1ccc(O)cc1)N1[C@H](c3ccccc3)[C@H](c3ccccc3)OC(=O)[C@H]1[C@@H]2C(=O)NC[C@H](O)c1ccccc1 )
a: -1.15

q: # get_value(readout='z-score', item= CCOC(=O)C[C@H]1[C@H](OC(=O)c2cc3ccccc3oc2=O)[C@@H](NC(=O)c2ccc(-c3ccccc3)cc2)c2cc(OCCCO)ccc2N1C(=O)c1ccc2ccccc2n1 )
a: 0.174

q: # get_value(readout='z-score', item= C=CC1c2cc(O)c(OC)cc2CCN1Cc1cc2c(cc1Br)OCO2 (stereo not given) )
a: -0.743

q: # get_value(readout='z-score', item= CC(C)C(=C=CC[C@H](O)c1cccc(OCCO)c1)C[C@H](O)c1cc(Cl)cc(Cl)c1O )
a: -0.527

q: # get_value(readout='z-score', item= Cc1cc(C)c(C(O)C2C=CC3C(=O)N(c4ccccc4)C(=O)C3N2Nc2ccc(C(C)C)cc2)c(C)c1 (stereo not given) )
a: -0.698

q: # get_value(readout='z-score', item= COC(=O)[C@@]1(Cc2ccc(F)cc2)[C@H]2c3cc(C(=O)N4CCCC4)n(CCc4ccc(O)c(O)c4)c3C[C@H]2CN1C(=O)c1ccccc1 )
a: -0.788

q: # get_value(readout='z-score', item= COC(=O)[C@@]1(Cc2ccccc2)[C@H]2c3cc(C(=O)N(C)C)n(CCc4ccc(O)c(OC)c4)c3C[C@H]2CN1C(=O)c1ccccc1 )
a: -0.665

q: # get_value(readout='z-score', item= COCCOC(=O)N1C(=O)[C@@]2(c3cc(C#Cc4ccc(OC)cc4)ccc31)[C@H](C(=O)Nc1nc3ccccc3s1)[C@H]1C(=O)O[C@H](c3ccccc3)[C@H](c3ccccc3)N1[C@@H]2c1ccc(OCCO)cc1 )
a: -0.604

q: # get_value(readout='z-score', item= CCCCCCCCCCC(O)C1C=CC2C(=O)N(C)C(=O)C2N1Nc1ccc([N+](=O)[O-])cc1[N+](=O)[O-] (stereo not given) )
a: -0.935

q: # get_value(readout='z-score', item= Cc1cc(C)cc(N2C(=O)CSC2c2cccc([N+](=O)[O-])c2)c1 (stereo not given) )
a: -0.445

q: # get_value(readout='z-score', item= COc1ccc(CCNC(=O)[C@@]2(Sc3ccc(C)cc3)CC(=O)N(C3Cc4ccccc4C3)[C@@H]2c2ccc(CO)cc2)cc1 )
a: -0.608

q: # get_value(readout='z-score', item= O=C1NC(=O)C2C1C=CC(C(O)c1cccc3ccccc13)N2Nc1ccc(Cl)cc1Cl (stereo not given) )
a: -0.962

###

# assay text: small-molecule microarray binders of probe aNog, primary screen, biochemical, biotinylated probe, 635/667 nm fluorescence (AID 1115);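 note: probe is biotinylated aNog protein used at 0.15 µg/mL for 1 h at 4 C; z-score combines 667 nm fluorescence of each spot with its signal to noise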
# study conditions: higher = more signal
Below, each entry is listed with its recorded composite z-score.
Give the value as a plain number.

# example entries with known answers
q: # get_value(readout='composite z-score', item= C=CCNC(=O)[C@H]1[C@@H]2C(=O)O[C@@H](c3ccccc3)[C@@H](c3ccccc3)N2[C@@H](c2ccc(O)cc2)[C@]12C(=O)N(C(=O)OCCOC)c1ccccc12 )
a: -0.206

q: # get_value(readout='composite z-score', item= C[C@@H]1ON(c2ccc(C(=O)OC(C)(C)C)cc2)[C@H](c2ccc(O)cc2)[C@H]1C(=O)N1C(=O)OC[C@H]1Cc1ccccc1 )
a: 0.495

q: # get_value(readout='composite z-score', item= CC(C)C[C@@H]1NC(=O)[C@@H]2C[C@H](C(=O)NCCCCCN)[C@H](c3ccc(O)cc3)N2C1=O )
a: -0.651

q: # get_value(readout='composite z-score', item= O=C(NCC(F)(F)F)[C@@H]1c2ccccc2C(=O)N(Cc2ccc(OC(F)(F)F)cc2)[C@H]1c1ccc(CO)cc1 )
a: -0.224

q: # get_value(readout='composite z-score', item= C=CCNC(=O)[C@@H]1[C@H]2C(=O)O[C@H](c3ccccc3)[C@H](c3ccccc3)N2[C@H](c2ccc(O)cc2)[C@@]12C(=O)N(C(=O)OCCOC)c1ccc(C#CC3(O)CCCCCC3)cc12 )
a: -0.343

Note: attention shifts to another entry.
q: # get_value(readout='composite z-score', item= C=CCC(OC(C)=O)[C@@H]1[C@@H](N(Cc2cccc3ccccc23)C(=O)Cc2ccc(F)cc2)c2cc(OCCCO)ccc2N1C(=O)c1ccc2ccccc2n1 (stereo partly specified) )
a: -0.432

###

# assay text: binders from COS7 lysate, DM2A8 probe, primary screen, torsin A project, cell lysate, small-molecule microarray, fluorescence 635/667 (AID 1065)
# study conditions: higher = more signal, COS7 lysate expressing mutant human TOR1A
Below, each entry is listed with its recorded composite z-score.
Give the value as a plain number.

q: # get_value(readout='composite z-score', item= CCOC(=O)C[C@H]1[C@H](OC(=O)c2cc3ccccc3oc2=O)[C@@H](NC(=O)c2ccc(-c3ccccc3)cc2)c2cc(OCCCO)ccc2N1C(=O)c1ccccc1 )
a: 1.07

q: # get_value(readout='composite z-score', item= O=C1NC(=O)C2C1C=CC(C(O)c1ccco1)N2Nc1ccccn1 (configuration not stated) )
a: -0.156

q: # get_value(readout='composite z-score', item= CCOc1cc(C(O)C2C=CC3C(=O)N(c4ccccc4)C(=O)C3N2Nc2ccc(C#N)cc2)ccc1O (configuration not stated) )
a: -0.223

q: # get_value(readout='composite z-score', item= CC(C)(C)N1CC=CC23O[C@@H]4C=CCOC(=O)[C@@H]4[C@H]2C(=O)N(CCCCCCO)[C@@H]3C1=O (some centres not stated) )
a: -0.511

q: # get_value(readout='composite z-score', item= C=CCOC(=O)[C@H]1[C@@H]2C(=O)O[C@@H](c3ccccc3)[C@@H](c3ccccc3)N2[C@@H](c2ccc(OCCOC(=O)[C@H]3C[C@H]4C(=O)N[C@@H](CC(C)C)C(=O)N4[C@H]3c3cccc(OCCO)c3)cc2)[C@]12C(=O)Nc1ccc(I)cc12 )
a: 0.178

q: # get_value(readout='composite z-score', item= COC(=O)c1c(CC[C@@H](CO)NC(=O)N2CCC[C@H]2Cn2cc(Cc3ccccc3)nn2)oc(C(C)=O)c1C(=O)OC )
a: 0.268

q: # get_value(readout='composite z-score', item= CCCC[C@@H]1C[C@H]1[C@@H](NC(=O)c1ccccc1)c1ccc(C(F)(F)F)cc1 )
a: -1.02

q: # get_value(readout='composite z-score', item= CC(C)[Si](C#C[Si](C(C)C)(C(C)C)C(C)C)(O[C@H](C)c1cn([C@H](CO)Cc2ccccc2)nn1)C(C)C )
a: 0.585

###

# assay text: binders of probe aFGF2 on microarray, primary screen, stem cell growth factor project, biochemical, small-molecule microarray, fluorescence 635/667 (AID 1067);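 note: measures binding of biotinylated aFGF2 protein to printed compounds on slides; z-score merges feature fluorescence and signal-to-noise across triplicate slides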
# study conditions: higher = more signal
Below, each entry is listed with its recorded composite z-score.
Give the value as a plain number.

q: # get_value(readout='composite z-score', item= C=CCNC(=O)[C@H]1[C@@H]2C(=O)O[C@@H](c3ccccc3)[C@@H](c3ccccc3)N2[C@@H](c2ccc(O)cc2)[C@]12C(=O)Nc1ccc(C#CC3(O)CCCCCC3)cc12 )
a: -0.0293

---
q: # get_value(readout='composite z-score', item= O=C(NCC(F)(F)F)[C@@H]1c2ccccc2C(=O)N(Cc2cc(F)cc(C(F)(F)F)c2)[C@H]1c1ccc(CO)cc1 )
a: -0.0996

q: # get_value(readout='composite z-score', item= C=CC[C@]1(C(=O)NCCN2CCOCC2)N=C(c2ccc(OCCCO)cc2)O[C@H]1c1ccccc1CN=[N+]=[N-] )
a: -0.0078

q: # get_value(readout='composite z-score', item= Cc1ccc(S[C@]2(C(=O)O)CC(=O)N(Cc3ccccc3Cl)[C@@H]2c2ccc(CO)cc2I)cc1 )
a: 0.234

q: # get_value(readout='composite z-score', item= CN1C(=O)C2C=CC(C(O)C#Cc3ccccc3)N(Nc3ccccc3)C2C1=O (stereo not given) )
a: 0.111

q: # get_value(readout='composite z-score', item= CC1CC/C=C\[C@H]2OC34C=CCN(C(C)C)C(=O)[C@H]3N(CCCCCCO)C(=O)[C@@H]4C2C(=O)O1 (stereo not given in full) )
a: -0.143

q: # get_value(readout='composite z-score', item= N#Cc1ccc(C(O)C2C=CC3C(=O)N(c4ccccc4)C(=O)C3N2Nc2ccccc2)cc1 (stereo not given) )
a: 0.129

q: # get_value(readout='composite z-score', item= COc1ccc([Si](C)(C)[C@H]2[C@H](CC(=O)N(CCO)Cc3ccccc3)O[C@@]3(C(=O)N(Cc4cccc(N5CCOC5=O)c4)c4ccccc43)[C@@H]2C)cc1 )
a: -0.0737
